- experimentalSystem: T1, biotinylated CD3 epsilon:delta heterodimer protein (Amsbio AMS.CDD-H52WO) (Homo sapiens (Human), UniProt P07766 23-126; P04234 22-105)
- T1 construct: also called CD3 heterodimer
- experimentSummary: BLI (Octet), CD3 on SA sensor, Fab analyte;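 note: biolayer interferometry with biotinylated CD3 epsilon:delta captured on streptavidin sensors, Fab analyte at several concentrations up to 300 nM, 100 s association then 300 s dissociation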
endpointLabel: kon

binder="huSP34.3.5 Fab-HF (Fab, V domains shown, also called HC3+LC5) VH: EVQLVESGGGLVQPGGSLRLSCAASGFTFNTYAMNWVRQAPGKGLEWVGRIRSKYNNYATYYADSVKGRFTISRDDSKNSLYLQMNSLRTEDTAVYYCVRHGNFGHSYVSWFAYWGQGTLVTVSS VL: QAVVTQEPSLTVSPGGTVTLTCGSSTGAVTTGHYANWVQQKPGQAPRGLIGGTSNRAPWTPARFSGSLLGGKAALTLSGAQPEDEAEYYCALWYSARWVFGGGTKLTVL" endpointlabel=kon result="260000 M⁻¹ s⁻¹"

We next turn to a different binder, shown below.
Q. Which kon is reported for this binder? huSP34.9.1 Fab-HF (Fab, V domains shown, also called HC9+LC1) VH: EVQLVESGGGLVQPGGSLRLSCAASGFTFSDYAMNWVRQAPGKGLEWVGRTRSKYNSYATYYAASVKGRFTISRDDSKNSLYLQMNSLKTEDTAVYYCVRHGNFGNSYVSWFAVWGQGTLVTVSS VL: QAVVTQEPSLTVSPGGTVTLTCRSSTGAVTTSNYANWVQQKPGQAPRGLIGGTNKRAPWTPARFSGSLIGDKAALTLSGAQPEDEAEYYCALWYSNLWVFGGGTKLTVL
A. 187000 M⁻¹ s⁻¹
